assay.overview: Ratio of plasma concentration in CD rat at 1 mg/kg, iv and 5 mg/kg, po after 24 hrs to IC50 for HIV in presence of 40 mg/mL of purified human serum albumin
Assay type: ADME, organism-based
study.conditions: in vivo
attribute.measured: Ratio

P = O=C(NCCO)c1c(O)c2ncc(Cc3ccc(F)cc3)cc2[nH]c1=O
Q = C[C@@H](CO)NC(=O)c1c(O)c2ncc(Cc3ccc(F)cc3)cc2n(C)c1=O
Problem: Lower value for measured Ratio? Options: P , Q Give the label of your selection.
Solution: P

###

assay.overview: Half life in dog at 1 mg/kg, iv and 5 mg/kg, po
Format: ADME, organism-based, Canis lupus familiaris
study.conditions: in vivo
attribute.measured: half-life (h)
Provide only the numeric value, understood in h.

Problem: // query half-life value for entry CNC(=O)c1c(O)c2ncc(Cc3ccc(F)cc3)cc2n(C)c1=O
Solution: 1.6

###

assay.overview: AUC in CD rat at 5 mg/kg, po
Format: ADME, organism-based
Design: dose 5 mg/kg, route oral
study.conditions: plasma
attribute.measured: AUC (ng·h/mL)

O=C(NCCO)c1c(O)c2ncc(Cc3ccc(F)cc3)cc2[nH]c1=O    3060

a = Cn1c(=O)c(C(=O)NCCN2CCNC2=O)c(O)c2ncc(Cc3ccc(F)cc3)cc21
b = Cn1c(=O)c(C(=O)NCCO)c(O)c2ncc(Cc3ccc(F)cc3)cc21
Problem: Dear colleague, could you let me know whether a or b has the lower recorded AUC? Thanks. Identify your selection by its label.
Solution: a
(a: 3550 ng·h/mL, b: 22800 ng·h/mL)

###

assay.overview: Ratio of plasma concentration in CD rat at 1 mg/kg, iv and 5 mg/kg, po after 24 hrs to IC50 for HIV in presence of 40 mg/mL of purified human serum albumin
Format: ADME, organism-based
study.conditions: in vivo
attribute.measured: Ratio

Recorded Ratio, per entry:
COCCNC(=O)c1c(O)c2ncc(Cc3ccc(F)cc3)cc2n(C)c1=O    0.1
C[C@H](CO)NC(=O)c1c(O)c2ncc(Cc3ccc(F)cc3)cc2[nH]c1=O    0

I = COCCNC(=O)c1c(O)c2ncc(Cc3ccc(F)cc3)cc2[nH]c1=O
II = Cn1c(=O)c(C(=O)NCCO)c(O)c2ncc(Cc3ccc(F)cc3)cc21 [GSK-364735]
III = CN(CCNC(=O)c1c(O)c2ncc(Cc3ccc(F)cc3)cc2n(C)c1=O)S(C)(=O)=O
IV = Cn1c(=O)c(C(=O)NCCN2CCNC2=O)c(O)c2ncc(Cc3ccc(F)cc3)cc21
Problem: rank_up(items): orders items by reported Ratio in ascending numerical order. Answer by listing the labels in the requested order.
Solution: IV, I, II, III
